- target.under.test: P2X7 (Homo sapiens, UniProt Q99572)
- assay.comment: Ca2+ flux (FLIPR) in 1321N1 cells expressing recombinant human P2X7 channel
- Type: cell-based
- Parameters: expressed in transfected cells; host or cells: 1321N1 cells
- measurement.parameters: 250 μM BzATP
This listing pairs compounds with measured pIC50.
Just the number, please; pIC50 means minus log10 of the concentration in mol/L.

The examples below pair each entry with its known result.
{"compound": "O=C(c1ccc(F)c(Cl)c1Cl)N1CCn2c(nnc2C(F)(F)F)[C@H]1c1ccccc1", "target.under.test": "P2X7 (Homo sapiens, UniProt Q99572)", "numeric.value": 7.97}
{"compound": "O=C(c1cccc(C(F)(F)F)c1Cl)N1CCn2c(nnc2C(F)(F)F)[C@@H]1c1ccccc1", "target.under.test": "P2X7 (Homo sapiens, UniProt Q99572)", "numeric.value": 5.26}
{"compound": "O=C(c1ccc(Cl)cc1Cl)N1CCn2c(nnc2C(F)(F)F)[C@H]1c1ccccc1", "target.under.test": "P2X7 (Homo sapiens, UniProt Q99572)", "numeric.value": 6.32}
{"compound": "Cc1nnc2n1CCN(C(=O)c1cccc(Cl)c1Cl)[C@H]2c1ccccn1", "target.under.test": "P2X7 (Homo sapiens, UniProt Q99572)", "numeric.value": 5.42}
{"compound": "O=C(c1cccc(C(F)(F)F)c1Cl)N1CCn2c(nnc2C(F)(F)F)C1c1ccn[nH]1 (racemic)", "target.under.test": "P2X7 (Homo sapiens, UniProt Q99572)", "numeric.value": 5.81}

Q) Give its pIC50 value. Item: C[C@H]1Cn2c(nnc2-c2ccc(F)c(F)c2)CN1C(=O)c1cccc(C(F)(F)F)c1Cl
A) 5.78

Q) Moving on to the next compound: O=C(c1cccc(Cl)c1Cl)N1CCn2c(nnc2C(F)(F)F)[C@@H]1c1ccccc1
A) 5.85

Q) Continue with O=C(c1ccc(F)c(Cl)c1Cl)N1CCn2c(nnc2C(F)(F)F)[C@@H]1c1ccccc1
A) 4.93

----------
Entries and their pIC50 values follow.
- target.under.test: P2X7 (Homo sapiens)
- Sequence (Q99572 1-595): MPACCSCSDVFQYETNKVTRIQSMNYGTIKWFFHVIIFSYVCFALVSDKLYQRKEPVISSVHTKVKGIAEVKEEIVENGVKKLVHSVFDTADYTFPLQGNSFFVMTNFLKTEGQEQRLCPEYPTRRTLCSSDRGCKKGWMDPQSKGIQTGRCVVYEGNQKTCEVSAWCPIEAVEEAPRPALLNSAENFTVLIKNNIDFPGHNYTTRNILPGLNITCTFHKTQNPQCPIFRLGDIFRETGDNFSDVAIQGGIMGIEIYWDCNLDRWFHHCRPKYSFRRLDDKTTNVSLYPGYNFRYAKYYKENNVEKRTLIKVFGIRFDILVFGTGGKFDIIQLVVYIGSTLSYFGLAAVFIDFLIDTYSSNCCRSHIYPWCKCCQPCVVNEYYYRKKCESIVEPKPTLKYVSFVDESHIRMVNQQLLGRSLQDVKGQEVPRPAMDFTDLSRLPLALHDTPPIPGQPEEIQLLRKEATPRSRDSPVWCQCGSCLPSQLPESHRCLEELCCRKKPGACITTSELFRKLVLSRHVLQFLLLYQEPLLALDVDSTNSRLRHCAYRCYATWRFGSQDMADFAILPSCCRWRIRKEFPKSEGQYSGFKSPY
- assay.comment: Ca2+ flux (FLIPR) in 1321N1 cells expressing recombinant human P2X7 channel
- Format: cell-based
- Parameters: expressed in transfected cells; host or cells: 1321N1 cells
- measurement.parameters: 250 μM BzATP
- Method: P2X7 Antagonism in Recombinant Human P2X7 Cells or Recombinant Rat P2X7 Cells: (a) Ca^2+ Flux and (b) Radioligand Binding (a) Ca^2+ flux: 1321N1 cells expressing the recombinant human or rat P2X7 channel was cultured in HyQ DME/(HyClone/Dulbecco's Modified Eagle Medium) high glucose supplemented with 10% Fetal Bovine Serum (FBS) and appropriate selection marker. […] The fluorescence change was measured 180 seconds after adding the agonist.
// field semantics: pIC50 = negative decimal log of concentration (mol/L)

{"compound": "CC1c2nnc(-c3ccc(Cl)cc3)n2CCN1C(=O)c1cccc(C(F)(F)F)c1Cl (stereo not shown) [Example 37]", "target.under.test": "P2X7 (Homo sapiens)", "pIC50": 6.76}
{"compound": "C[C@H]1Cn2c(nnc2-c2ccc(F)cc2F)CN1C(=O)c1ccc(F)c(Cl)c1Cl [Example 52]", "target.under.test": "P2X7 (Homo sapiens)", "pIC50": 5.15}
{"compound": "C[C@H]1Cn2c(nnc2-c2ccc(C(F)(F)F)cc2)CN1C(=O)c1cccc(C(F)(F)F)c1Cl [Example 27]", "target.under.test": "P2X7 (Homo sapiens)", "pIC50": 5.78}

Proceeding to the next compound to report its pIC50.
Q) Given the compound C[C@H]1Cn2c(nnc2-c2cccc(F)c2)CN1C(=O)c1cccc(C(F)(F)F)c1Cl [Example 42] , what is its reported pIC50?
A) 5.67

Reference for the values: patent US12338243B2
